# TARGET: Human MrgprX2 (Homo sapiens, UniProt Q96LB1)
# Construct: expressed in transfected cells
# Sequence (Q96LB1 whole entry): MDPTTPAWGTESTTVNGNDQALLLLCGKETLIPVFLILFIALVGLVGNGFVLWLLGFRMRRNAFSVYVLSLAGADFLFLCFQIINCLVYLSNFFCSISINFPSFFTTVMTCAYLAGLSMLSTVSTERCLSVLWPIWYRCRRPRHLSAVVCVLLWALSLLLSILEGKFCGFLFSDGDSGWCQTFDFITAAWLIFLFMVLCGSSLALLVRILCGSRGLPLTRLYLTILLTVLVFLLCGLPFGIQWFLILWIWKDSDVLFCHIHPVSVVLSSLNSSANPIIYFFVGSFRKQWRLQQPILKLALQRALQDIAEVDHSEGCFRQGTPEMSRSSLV
# ASSAY_REMARKS: Human MrgprX2 antagonist FLIPR intracellular calcium mobilization assay
# Assay type: cell-based
# CONDITION_DESCRIPTION: antagonist activity, recombinant hMrgpMRGPRX2 expressing cells, read-out: Human MrgprX2 Antagonist pIC50 (converted)
READOUT_LABEL: IC50 (nM)

Output IC50 of CCN(C[C@H](C)O)C(=O)Nc1ncc(Oc2cccc(F)c2C#N)s1
251

Output IC50 of C[C@@]1(C(=O)Nc2ncc(Cc3cccc(Cl)c3)s2)CCOC1 (single isomer, unassigned)
63.1

Output IC50 of CC(O)CN(CC(F)(F)F)C(=O)Nc1ncc(Cc2cccc(F)c2)s1 (centres unmarked)
200

I = CCN(C[C@H](C)O)C(=O)Nc1ncc(Oc2ccccc2F)s1
II = N#Cc1ccc(Oc2cnc(NC(=O)[C@H]3CCCN3S(N)(=O)=O)s2)cc1
III = CN(CC(O)C(F)(F)F)C(=O)Nc1ncc(Cc2cccc(F)c2)s1 (centres unmarked)
IV = CC(C)C(=O)Nc1ncc(Cc2ccc(F)cc2F)s1
V = C[C@@H](O)CN(C)C(=O)Nc1ncc(Cc2cc(F)cc(F)c2)s1
Sort low-to-high on IC50, please. Respond with an ordered listing of the labels, as requested.
I, V, III, IV, II

====

# TARGET: Human MrgprX2 (Homo sapiens)
# Construct: expressed in transfected cells
# ASSAY_REMARKS: Human MrgprX2 antagonist FLIPR intracellular calcium mobilization assay
# Assay type: cell-based
# CONDITION_DESCRIPTION: antagonist activity, recombinant hMrgpMRGPRX2 expressing cells, read-out: Human MrgprX2 Antagonist pIC50 (converted)
READOUT_LABEL: IC50 (nM)

I = CC(C)C(=O)Nc1ncc(Oc2ccccc2F)s1
II = C[C@H](O)CN(C)C(=O)Nc1ncc(Oc2cncc(C(F)(F)F)c2)s1
III = C[C@@]1(C(=O)Nc2ncc(Oc3cccc(F)c3)s2)CCOC1 (single isomer, unassigned)
IV = CC(O)CN(C(=O)Nc1ncc(Cc2cccc(F)c2)s1)C1CC1 (stereo not shown)
Which order do these items fall in when sorted by IC50 from largest to smallest? Respond with an ordered listing of the labels, as requested.
II, IV, I, III

====

# TARGET: Human MrgprX2 (Homo sapiens, UniProt Q96LB1)
# Construct: expressed in transfected cells
# ASSAY_REMARKS: Human MrgprX2 antagonist FLIPR intracellular calcium mobilization assay
# Format: cell-based
# CONDITION_DESCRIPTION: antagonist activity, recombinant hMrgpMRGPRX2 expressing cells, read-out: Human MrgprX2 Antagonist pIC50 (converted)
READOUT_LABEL: IC50 (nM)

Recorded IC50, per entry:
Output IC50 of C[C@H](O)CN(C)C(=O)Nc1ncc(Oc2cccc(C(F)(F)F)c2)s1
20

Output IC50 of CCN(C[C@H](C)O)C(=O)Nc1ncc(Oc2cccc(C(F)(F)F)c2)s1
3.16

Output IC50 of CC1(C(=O)Nc2ncc(Cc3cccc(F)c3)s2)CCOCC1
100

Output IC50 of CC(=O)N1CCC[C@@H]1C(=O)Nc1ncc(Cc2cccc(F)c2)s1
3980

A = CC(C)C(=O)Nc1ncc(Nc2ccccc2)s1
B = CC1(C(=O)Nc2ncc(Cc3cccc(F)c3F)s2)CCOCC1
C = C[C@H](O)CN(C)C(=O)Nc1ncc(Oc2ccc(F)cc2)s1
D = C[C@H](O)CN(C)C(=O)Nc1ncc(Cc2ccc(F)cc2F)s1
E = CCN(C[C@H](C)O)C(=O)Nc1ncc(Oc2ccc(F)cc2)s1
Rank entries according to their IC50, from the largest number down. Respond with an ordered listing of the labels, as requested.
A, B, D, C, E
(A: 1260 nM, B: 158 nM, D: 50.1 nM, C: 2 nM, E: 0.631 nM)
